Values compiled from patent US11209437B2.

assay_system: SNAP protein tags (Homo sapiens, UniProt P16455, A127T/A154D/C150Q/C62A/E30R/G131K/G132T/G153L/K125A/K32I/L33F/M134L/N157G/Q115S/Q116H/R128A/R135S/S151G/S152D/S159E)
Sequence (P16455 1-182 with the stated changes): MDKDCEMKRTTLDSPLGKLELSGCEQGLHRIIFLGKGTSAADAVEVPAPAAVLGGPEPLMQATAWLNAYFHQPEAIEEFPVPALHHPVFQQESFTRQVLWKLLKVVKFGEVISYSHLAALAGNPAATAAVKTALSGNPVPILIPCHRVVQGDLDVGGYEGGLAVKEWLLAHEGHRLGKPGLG
test_name: Fluorescence activation of probe after incubation with corresponding protein tag (SNAP)
Format: biochemical
recorded_conditions: probe 5 μM, protein tag 10 μM, 37° C., 1 hr
assay_endpoint: Quantum yield of probe bound to protein tag
A bare number is all that is needed in reply.

- item_smiles: "CN(CCOC(=O)NCc1ccc(COc2nc(N)nc3[nH]cnc23)cc1)c1ccc(C#C/C=C(\\C#N)C(=O)O)cc1"
  numeric_value: 0.33

Task: If you can, please state the reported Quantum yield of probe bound to protein tag value of CN(CCOC(=O)NCc1ccc(COc2cc(Cl)nc(N)n2)cc1)c1ccc2nc(/C=C(\C#N)C(=O)OC(C)(C)C)sc2c1 .
Result: 0.25

Task: What do you have for CN(CCOC(=O)NCc1ccc(COc2nc(N)nc3[nH]cnc23)cc1)c1ccc2c(c1)sc1cc(/C=C(/C#N)C(=O)OC(C)(C)C)sc12 ?
Result: 0.73
